# MEASURED TARGET: CYP3A4 (Homo sapiens)
# Sequence (P08684 whole entry): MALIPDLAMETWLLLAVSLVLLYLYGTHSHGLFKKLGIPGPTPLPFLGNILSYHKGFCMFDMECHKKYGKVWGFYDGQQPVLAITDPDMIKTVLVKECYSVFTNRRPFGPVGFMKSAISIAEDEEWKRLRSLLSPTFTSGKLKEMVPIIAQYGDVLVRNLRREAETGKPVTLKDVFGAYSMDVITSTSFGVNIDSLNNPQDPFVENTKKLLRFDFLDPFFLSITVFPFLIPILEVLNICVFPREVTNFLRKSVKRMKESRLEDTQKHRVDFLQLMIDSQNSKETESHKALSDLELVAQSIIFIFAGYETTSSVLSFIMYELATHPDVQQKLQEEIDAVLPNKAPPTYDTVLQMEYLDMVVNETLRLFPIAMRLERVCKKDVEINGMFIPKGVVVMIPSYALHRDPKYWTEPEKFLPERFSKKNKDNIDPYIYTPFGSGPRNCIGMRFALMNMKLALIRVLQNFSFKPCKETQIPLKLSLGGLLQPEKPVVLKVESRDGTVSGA
# PROTOCOL DETAILS: Inhibition of CYP3A4 (unknown origin) expressed in insect cells at 10 uM using testosterone as substrate after 15 mins by HPLC analysis relative to control
# Type: ADME
# CONDITION SET: recombinant CYP3A4 expressed in insect cells, probe testosterone
MEASURED PARAMETER: inhibition at 0.25 h, 10 µM (%)
Use % as the unit, but write only the number.

>>> reported_measurement("CNCc1cn(S(=O)(=O)c2cccnc2Cl)c(-c2cccnc2F)c1F")
53.1
>>> reported_measurement("CNCc1cn(S(=O)(=O)c2ccc(C)nc2)c(-c2cccnc2F)c1F")
-1.2
>>> reported_measurement("CNCc1cn(S(=O)(=O)c2cccc(F)n2)c(-c2cccnc2F)c1F")
46
>>> reported_measurement("CNCc1cn(S(=O)(=O)c2cccs2)c(-c2cccnc2F)c1F")
20.5
>>> reported_measurement("CNCc1cn(S(=O)(=O)c2cccc(C)n2)c(-c2cccnc2F)c1F")
22.9

Attention now turns to another entry.
// query Report inhibition at 0.25 h, 10 µM for CNCc1cc(-c2cccnc2F)n(S(=O)(=O)c2ccccn2)c1 please.
// result -9.7
